test system: E. faecalis ATCC 29212; type: cell-based, Enterococcus faecalis; conditions: ATCC 29212, 18 h
Non-standard residues stand in square brackets, D forms with d. Residues, ends and D or L forms follow the SMILES beside them. *: point of attachment. Lys(Me3) = C[N+](C)(C)CCCC[C@H](N)C(=O)O; Octanoyl = CCCCCCCC(=O)*
Would you mind telling me the reported MIC of each entry?
One number for each entry, in µg/mL.

MOLECULE	MIC / µg/mL
CCCCCCCC(=O)NCCCC[C@H](NC(=O)CCCCCCC)C(=O)N[C@@H](CCCCN)C(=O)N[C@@H](CCCCN)C(=O)N[C@@H](CCCCN)C(=O)N[C@@H](CCCCN)C(N)=O [UTBLP 5] (Octanoyl-K(Octanoyl)KKKK-NH2)	32

Now for another entry.
Exercise: Given the molecule CCCCCCCC(=O)NCCCC[C@H](NC(=O)CCCCCCC)C(=O)N[C@@H](CCCC[N+](C)(C)C)C(=O)N[C@@H](CCCC[N+](C)(C)C)C(=O)N[C@@H](CCCC[N+](C)(C)C)C(=O)N[C@@H](CCCC[N+](C)(C)C)C(N)=O [UTBLP 8] (Octanoyl-K(Octanoyl)[Lys(Me3)][Lys(Me3)][Lys(Me3)][Lys(Me3)]-NH2) , what is its reported MIC?
Key: 128

* * *

System: A. baumannii 92247
Assay type: cell-based, Acinetobacter baumannii
Settings: UTBLP in combination with novobiocin
Description: The synergy of the UTBLPs with various antibiotics was assessed using checkerboard assay as previously described. […] Growth in the form of turbidity was confirmed using an EMax Plus microplate reader (Molecular Devices, Union City, CA, USA) at 590 nm. […] The FIC value is calculated by dividing the MIC of the agents in combination by the MIC of the agent alone. […]
Non-standard residues stand in square brackets, D forms with d. Residues, ends and D or L forms follow the SMILES beside them. *: point of attachment. Lys(Me3) = C[N+](C)(C)CCCC[C@H](N)C(=O)O; Lys(Me2) = CN(C)CCCC[C@H](N)C(=O)O; Lys(Me) = CNCCCC[C@H](N)C(=O)O; Octanoyl = CCCCCCCC(=O)*
ENDPOINT NAME: MICUTBLP [MICcombo] (µg/mL)
Answers are plain numbers, in µg/mL.

COMPOUND	ASSAY SYSTEM	DATA VALUE
CCCCCCCC(=O)N[C@@H](CCCCN(C)C)C(=O)NCCCN(CCCNC(=O)[C@H](CCCCN(C)C)NC(=O)CCCCCCC)CC(=O)N[C@@H](CCCCN(C)C)C(N)=O	A. baumannii 92247	8

Please state MICUTBLP [MICcombo] for every compound in the list that follows.
1. CCCCCCCC(=O)NCCCC[C@H](NC(=O)CCCCCCC)C(=O)N[C@@H](CCCCN)C(=O)N[C@@H](CCCCN)C(=O)N[C@@H](CCCCN)C(=O)N[C@@H](CCCCN)C(N)=O [UTBLP 5] (Octanoyl-K(Octanoyl)KKKK-NH2)
2. CCCCCCCC(=O)NCCCC[C@H](NC(=O)CCCCCCC)C(=O)N[C@@H](CCCCN(C)C)C(=O)N[C@@H](CCCCN(C)C)C(=O)N[C@@H](CCCCN(C)C)C(=O)N[C@@H](CCCCN(C)C)C(N)=O [UTBLP 7] (Octanoyl-K(Octanoyl)[Lys(Me2)][Lys(Me2)][Lys(Me2)][Lys(Me2)]-NH2)
3. CCCCCCCC(=O)N[C@@H](CCCCN)C(=O)NCCCN(CCCNC(=O)[C@H](CCCCN)NC(=O)CCCCCCC)CC(=O)N[C@@H](CCCCN)C(N)=O
4. CCCCCCCC(=O)N[C@@H](CCCCNC)C(=O)NCCCN(CCCNC(=O)[C@H](CCCCNC)NC(=O)CCCCCCC)CC(=O)N[C@@H](CCCCNC)C(N)=O
5. CCCCCCCC(=O)NCCCC[C@H](NC(=O)CCCCCCC)C(=O)N[C@@H](CCCC[N+](C)(C)C)C(=O)N[C@@H](CCCC[N+](C)(C)C)C(=O)N[C@@H](CCCC[N+](C)(C)C)C(=O)N[C@@H](CCCC[N+](C)(C)C)C(N)=O [UTBLP 8] (Octanoyl-K(Octanoyl)[Lys(Me3)][Lys(Me3)][Lys(Me3)][Lys(Me3)]-NH2)
6. CCCCCCCC(=O)NCCCC[C@H](NC(=O)CCCCCCC)C(=O)N[C@@H](CCCCNC)C(=O)N[C@@H](CCCCNC)C(=O)N[C@@H](CCCCNC)C(=O)N[C@@H](CCCCNC)C(N)=O [UTBLP 6] (Octanoyl-K(Octanoyl)[Lys(Me)][Lys(Me)][Lys(Me)][Lys(Me)]-NH2)

Key:
1: 1; 2: 1; 3: 4; 4: 16; 5: 16; 6: 1

* * *

tested on: E. coli 94393; assay type: cell-based, Escherichia coli; details: UTBLP in combination with rifampicin
Non-standard residues stand in square brackets, D forms with d. Residues, ends and D or L forms follow the SMILES beside them. *: point of attachment. Lys(Me3) = C[N+](C)(C)CCCC[C@H](N)C(=O)O; Lys(Me2) = CN(C)CCCC[C@H](N)C(=O)O; Lys(Me) = CNCCCC[C@H](N)C(=O)O; Octanoyl = CCCCCCCC(=O)*
For each record, write down the corresponding MICUTBLP [MICcombo].
Numbers only, in µg/mL.

COMPOUND	MICUTBLP [MICcombo] / µg/mL
CCCCCCCC(=O)NCCCC[C@H](NC(=O)CCCCCCC)C(=O)N[C@@H](CCCC[N+](C)(C)C)C(=O)N[C@@H](CCCC[N+](C)(C)C)C(=O)N[C@@H](CCCC[N+](C)(C)C)C(=O)N[C@@H](CCCC[N+](C)(C)C)C(N)=O [UTBLP 8] (Octanoyl-K(Octanoyl)[Lys(Me3)][Lys(Me3)][Lys(Me3)][Lys(Me3)]-NH2)	16
CCCCCCCC(=O)NCCCC[C@H](NC(=O)CCCCCCC)C(=O)N[C@@H](CCCCN)C(=O)N[C@@H](CCCCN)C(=O)N[C@@H](CCCCN)C(=O)N[C@@H](CCCCN)C(N)=O [UTBLP 5] (Octanoyl-K(Octanoyl)KKKK-NH2)	4
CCCCCCCC(=O)NCCCC[C@H](NC(=O)CCCCCCC)C(=O)N[C@@H](CCCCN(C)C)C(=O)N[C@@H](CCCCN(C)C)C(=O)N[C@@H](CCCCN(C)C)C(=O)N[C@@H](CCCCN(C)C)C(N)=O [UTBLP 7] (Octanoyl-K(Octanoyl)[Lys(Me2)][Lys(Me2)][Lys(Me2)][Lys(Me2)]-NH2)	8
CCCCCCCC(=O)NCCCC[C@H](NC(=O)CCCCCCC)C(=O)N[C@@H](CCCCNC)C(=O)N[C@@H](CCCCNC)C(=O)N[C@@H](CCCCNC)C(=O)N[C@@H](CCCCNC)C(N)=O [UTBLP 6] (Octanoyl-K(Octanoyl)[Lys(Me)][Lys(Me)][Lys(Me)][Lys(Me)]-NH2)	4
CCCCCCCC(=O)N[C@@H](CCCCN)C(=O)NCCCN(CCCNC(=O)[C@H](CCCCN)NC(=O)CCCCCCC)CC(=O)N[C@@H](CCCCN)C(N)=O	8
CCCCCCCC(=O)N[C@@H](CCCCNC)C(=O)NCCCN(CCCNC(=O)[C@H](CCCCNC)NC(=O)CCCCCCC)CC(=O)N[C@@H](CCCCNC)C(N)=O	16

Exercise: Which value of MICUTBLP [MICcombo] has been reported for CCCCCCCC(=O)N[C@@H](CCCCN(C)C)C(=O)NCCCN(CCCNC(=O)[C@H](CCCCN(C)C)NC(=O)CCCCCCC)CC(=O)N[C@@H](CCCCN(C)C)C(N)=O in the records?
Key: 16

* * *

tested on: MSSE 81388; type: cell-based, Staphylococcus epidermidis; conditions: 18 h
Non-standard residues stand in square brackets, D forms with d. Residues, ends and D or L forms follow the SMILES beside them. *: point of attachment. Lys(Me3) = C[N+](C)(C)CCCC[C@H](N)C(=O)O; Lys(Me) = CNCCCC[C@H](N)C(=O)O; Octanoyl = CCCCCCCC(=O)*
Exercise: for every item that follows, state its recorded MIC.
One number for each entry, in mg/L.

COMPOUND	ENDPOINT NAME	UNIT INFO	DATA VALUE
CCCCCCCC(=O)NCCCC[C@H](NC(=O)CCCCCCC)C(=O)N[C@@H](CCCCNC)C(=O)N[C@@H](CCCCNC)C(=O)N[C@@H](CCCCNC)C(=O)N[C@@H](CCCCNC)C(N)=O [UTBLP 6] (Octanoyl-K(Octanoyl)[Lys(Me)][Lys(Me)][Lys(Me)][Lys(Me)]-NH2)	MIC	mg/L	16

Provide reported MIC for each item, in the same order as listed.
1. CCCCCCCC(=O)NCCCC[C@H](NC(=O)CCCCCCC)C(=O)N[C@@H](CCCC[N+](C)(C)C)C(=O)N[C@@H](CCCC[N+](C)(C)C)C(=O)N[C@@H](CCCC[N+](C)(C)C)C(=O)N[C@@H](CCCC[N+](C)(C)C)C(N)=O [UTBLP 8] (Octanoyl-K(Octanoyl)[Lys(Me3)][Lys(Me3)][Lys(Me3)][Lys(Me3)]-NH2)
2. CCCCCCCC(=O)N[C@@H](CCCCN)C(=O)NCCCN(CCCNC(=O)[C@H](CCCCN)NC(=O)CCCCCCC)CC(=O)N[C@@H](CCCCN)C(N)=O

Key:
[128, 32]
